Please go through the items and note down their z-score.
Target: NADPH oxidase 4 (Homo sapiens)
Test: NOX4-dependent H2O2 signal modulators, primary screen, NOX inhibitor project, cell-based, HEK293-NOX4, tetracycline-induced, Amplex Red fluorescence (AID 1160)
Settings: 45 min, higher = more signal, called active from +8 up or from −8 down
Answer with the value's number alone.

The compound O=C1c2ccccc2[C@](Cc2ccccc2I)(C(=O)NCCN2CCOCC2)[C@H](c2ccc(CO)cc2)N1Cc1ccccc1Cl showed z-score equal to 0.707

# compound COCCOC(=O)N1C(=O)[C@@]2(c3cc(C#CCNC(N)=O)ccc31)[C@H](C(=O)N1CCN(c3ncccn3)CC1)[C@H]1C(=O)O[C@H](c3ccccc3)[C@H](c3ccccc3)N1[C@@H]2c1ccc(OCCO)cc1 ; its z-score = 0.971

For this compound ( CCOC(=O)C[C@H]1[C@H](OC(=O)c2ccc(C(=O)c3ccccc3)cc2)[C@@H](NC(=O)c2ccccc2)c2cc(OCCCO)ccc2N1C(=O)Cc1ccc(OC)cc1 ), measured z-score is 0.983

For O=C1O[C@@H](c2ccccc2)[C@@H](c2ccccc2)N2[C@@H](c3ccccc3OCCO)[C@]3(C(=O)Nc4ccc(C#CC5=CCCCC5)cc43)[C@@H](C(=O)N3CCCCCCC3)[C@H]12 the compound record lists z-score as 0.55

z-score measured on CCOC(=O)C[C@H]1[C@H](OC(=O)c2cc3ccccc3oc2=O)[C@@H](NC(=O)c2ccccc2)c2cc(OCCCO)ccc2N1C(=O)c1ccc2ccccc2n1 = 0.43

Field z-score (entry C=C(CCCC)C(=O)CC[C@@H](OC(=O)c1ccccc1-c1ccccc1C(=O)O)c1ccc(OCCO)cc1 ) reads 0.216

The compound listed as O=C1[C@@]23C=C(Br)[C@H](C[C@@H]2CCOC3)[C@@]12CO2 shows z-score equal to 0.723
